The following compounds are listed with their measured IC50 values.
- Target or test system: RAJI p110 δ (Homo sapiens)
- Sequence (O00329 whole entry): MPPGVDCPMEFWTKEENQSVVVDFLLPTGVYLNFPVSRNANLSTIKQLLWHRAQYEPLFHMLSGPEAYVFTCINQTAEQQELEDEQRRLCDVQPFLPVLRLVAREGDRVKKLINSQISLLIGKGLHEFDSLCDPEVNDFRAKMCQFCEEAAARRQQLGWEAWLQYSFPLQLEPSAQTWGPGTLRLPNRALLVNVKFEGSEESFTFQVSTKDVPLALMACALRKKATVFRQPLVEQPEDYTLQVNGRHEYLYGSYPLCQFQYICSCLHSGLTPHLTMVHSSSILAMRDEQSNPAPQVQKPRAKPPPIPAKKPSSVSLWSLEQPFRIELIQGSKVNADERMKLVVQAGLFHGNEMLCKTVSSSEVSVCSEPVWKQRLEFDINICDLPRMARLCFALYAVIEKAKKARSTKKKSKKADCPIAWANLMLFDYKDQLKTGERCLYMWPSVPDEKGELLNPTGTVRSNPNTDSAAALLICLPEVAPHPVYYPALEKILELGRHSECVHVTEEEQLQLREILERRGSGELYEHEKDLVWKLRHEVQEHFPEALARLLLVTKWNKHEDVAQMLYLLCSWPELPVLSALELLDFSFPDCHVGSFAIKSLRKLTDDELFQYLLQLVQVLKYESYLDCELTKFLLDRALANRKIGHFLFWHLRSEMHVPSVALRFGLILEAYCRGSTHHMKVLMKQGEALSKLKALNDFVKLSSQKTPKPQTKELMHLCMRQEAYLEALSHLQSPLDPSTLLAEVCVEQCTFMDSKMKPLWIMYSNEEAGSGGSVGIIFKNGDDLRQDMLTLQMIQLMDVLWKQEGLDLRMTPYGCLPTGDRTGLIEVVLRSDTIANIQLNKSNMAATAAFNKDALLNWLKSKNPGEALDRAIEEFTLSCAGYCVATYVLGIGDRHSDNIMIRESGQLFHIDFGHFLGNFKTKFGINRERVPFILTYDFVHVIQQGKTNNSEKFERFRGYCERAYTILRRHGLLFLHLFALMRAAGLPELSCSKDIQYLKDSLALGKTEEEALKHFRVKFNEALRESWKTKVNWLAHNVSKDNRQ
- Sequence (P27986 whole entry partner): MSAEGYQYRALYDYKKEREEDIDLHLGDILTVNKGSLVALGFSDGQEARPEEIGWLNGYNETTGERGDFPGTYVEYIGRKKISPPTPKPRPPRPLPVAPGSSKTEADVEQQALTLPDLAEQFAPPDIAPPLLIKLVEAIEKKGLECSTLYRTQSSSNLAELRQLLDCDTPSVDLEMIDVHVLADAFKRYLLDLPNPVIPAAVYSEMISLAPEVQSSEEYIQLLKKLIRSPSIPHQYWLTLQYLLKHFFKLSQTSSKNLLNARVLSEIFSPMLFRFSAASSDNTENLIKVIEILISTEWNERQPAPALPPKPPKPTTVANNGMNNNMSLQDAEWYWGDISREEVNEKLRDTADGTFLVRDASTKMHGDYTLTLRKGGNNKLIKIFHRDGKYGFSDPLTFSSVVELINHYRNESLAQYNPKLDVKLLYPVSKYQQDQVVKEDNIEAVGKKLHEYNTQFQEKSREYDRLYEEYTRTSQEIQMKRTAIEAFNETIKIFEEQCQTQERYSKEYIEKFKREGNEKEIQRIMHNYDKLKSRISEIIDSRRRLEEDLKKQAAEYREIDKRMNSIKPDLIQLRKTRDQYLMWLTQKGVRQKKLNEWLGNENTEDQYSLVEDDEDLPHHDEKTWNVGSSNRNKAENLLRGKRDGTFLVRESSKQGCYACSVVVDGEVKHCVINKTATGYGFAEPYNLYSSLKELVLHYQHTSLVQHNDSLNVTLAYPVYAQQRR
- Test protocol: RAJI p110 δ cellular assay (phospho-AKT)

Would you please look over these solved cases?
{"Compound": "C[C@H](NC(=O)c1nc(-c2cccc(S(=O)(=O)NC3CC3)c2)cnc1N)c1cc2cccc(Cl)c2c(=O)n1-c1ccccc1 [Compound 96]", "IC50": "< 100 nM"}
{"Compound": "C[C@H](NC(=O)c1c(N)nn2cccnc12)c1cc2cccc(C=O)c2c(=O)n1-c1ccccc1 [Compound 201]", "IC50": "100 to 1000 nM"}
{"Compound": "C[C@H](NC(=O)c1nccnc1N)c1cc2cccc(-c3cnn(C)c3)c2c(=O)n1-c1ccccc1 [Compound 54]", "IC50": "< 100 nM"}
{"Compound": "C[C@H](NC(=O)c1c(N)nn2cccnc12)c1cc2cccc(-c3ccncc3)c2c(=O)n1-c1ccccc1 [Compound 117]", "IC50": "< 100 nM"}
{"Compound": "COc1ccc(-c2cnc(N)c(C(=O)N[C@@H](C)c3cc4cccc(Cl)c4c(=O)n3-c3ccccc3)n2)cc1NS(C)(=O)=O [Compound 101]", "IC50": "< 100 nM"}
{"Compound": "C[C@H](NC(=O)c1c(N)ncc2cccnc12)c1cc2cccc(N3CCOCC3)c2c(=O)n1-c1ccccc1 [Compound 214]", "IC50": "< 100 nM"}

Task item: Give IC50 for C[C@H](NC(=O)c1csc2cccnc12)c1cc2cccc(Cl)c2c(=O)n1-c1ccccc1 [Compound 68]
Reply: 1000 to 10000 nM

Task item: Give me measured IC50, please, for this compound: CC(=O)NCC#Cc1cccc2cc([C@H](C)NC(=O)c3c(N)nn4cccnc34)n(-c3ccccc3)c(=O)c12 [Compound 165]
Reply: < 100 nM

----------
- Target or test system: Raw264.7 p110 γ (Mus musculus, UniProt Q9JHG7)
- Construct: reduction of phospho-AKT in stimulated RAW 264.7 cells; endogenous in cells
- Sequence (Q9JHG7 whole entry): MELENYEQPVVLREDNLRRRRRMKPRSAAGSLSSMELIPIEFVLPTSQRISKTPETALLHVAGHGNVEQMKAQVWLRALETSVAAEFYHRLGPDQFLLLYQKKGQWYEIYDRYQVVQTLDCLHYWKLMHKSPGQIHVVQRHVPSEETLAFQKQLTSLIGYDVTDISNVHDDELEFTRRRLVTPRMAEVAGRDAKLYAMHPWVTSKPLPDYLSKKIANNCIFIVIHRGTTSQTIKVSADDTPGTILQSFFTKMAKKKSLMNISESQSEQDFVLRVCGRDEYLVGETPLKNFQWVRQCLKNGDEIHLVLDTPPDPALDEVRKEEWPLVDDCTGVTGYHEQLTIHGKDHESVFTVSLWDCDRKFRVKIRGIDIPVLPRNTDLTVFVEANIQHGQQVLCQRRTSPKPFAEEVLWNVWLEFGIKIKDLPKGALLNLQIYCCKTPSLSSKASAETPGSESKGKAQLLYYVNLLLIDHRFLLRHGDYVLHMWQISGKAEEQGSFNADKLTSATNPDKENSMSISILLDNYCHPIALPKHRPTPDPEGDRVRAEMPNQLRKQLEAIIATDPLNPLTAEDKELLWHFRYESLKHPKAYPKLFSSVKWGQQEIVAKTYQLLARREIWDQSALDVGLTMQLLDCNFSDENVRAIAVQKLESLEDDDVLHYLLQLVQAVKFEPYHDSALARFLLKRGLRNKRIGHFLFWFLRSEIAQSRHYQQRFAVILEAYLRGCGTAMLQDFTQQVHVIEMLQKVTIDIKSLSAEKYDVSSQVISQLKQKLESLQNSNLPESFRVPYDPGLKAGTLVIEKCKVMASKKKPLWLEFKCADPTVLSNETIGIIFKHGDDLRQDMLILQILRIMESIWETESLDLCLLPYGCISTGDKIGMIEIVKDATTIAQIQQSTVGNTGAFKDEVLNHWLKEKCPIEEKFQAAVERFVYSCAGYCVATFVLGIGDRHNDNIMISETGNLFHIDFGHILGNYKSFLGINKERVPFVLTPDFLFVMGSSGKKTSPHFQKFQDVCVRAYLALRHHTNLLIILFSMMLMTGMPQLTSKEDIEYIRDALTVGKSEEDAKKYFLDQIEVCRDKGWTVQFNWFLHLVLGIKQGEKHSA
- Test protocol: Raw264.7 p110 γ cellular assay (phospho-AKT)
- Study conditions: serum-starved RAW264.7 cells stimulated with C5a
Catalogue of IC50 values

{"Compound": "C[C@H](NC(=O)c1c(N)nn2cccnc12)c1cc2cccc(C#CCCN)c2c(=O)n1-c1ccccc1", "IC50": "100 to 1000 nM"}
{"Compound": "C[C@H](NC(=O)c1c(N)nn2cccnc12)c1cc2cccc(C(F)(F)F)c2c(=O)n1-c1ccccc1", "IC50": "< 100 nM"}
{"Compound": "C[C@H](NC(=O)c1nc(-c2cn[nH]c2)cnc1N)c1cc2cccc(Cl)c2c(=O)n1-c1ccccc1", "IC50": "< 100 nM"}

Task item: Give the value of IC50 reported for the following: C=CC(=O)NCC#Cc1cccc2cc([C@H](C)NC(=O)c3c(N)nn4cccnc34)n(-c3ccccc3)c(=O)c12
Reply: < 100 nM

Task item: Identify measured IC50 corresponding to C=CC(=O)NCCC#Cc1cccc2cc([C@H](C)NC(=O)c3c(N)nn4cccnc34)n(-c3ccccc3)c(=O)c12
Reply: < 100 nM

Task item: Please list IC50 recorded for the compound COc1cncc(-c2cccc3cc([C@H](C)NC(=O)c4c(N)nn5cccnc45)n(-c4ccccc4)c(=O)c23)c1
Reply: < 100 nM

Task item: Item C[C@H](NC(=O)c1c(N)nn2cccnc12)c1cc2cccc(-c3cnn(C)c3)c2c(=O)n1-c1ccccc1 : provide IC50
Reply: < 100 nM

Task item: Recall and state the measured IC50 for C[C@H](NC(=O)c1nc(-c2cccc(NS(=O)(=O)C3CC3)c2)cnc1N)c1cc2cccc(Cl)c2c(=O)n1-c1ccccc1 .
Reply: < 100 nM

Task item: # return recorded IC50 for input C[C@H](NC(=O)c1c(N)nn2cccnc12)c1cc2sccc2c(=O)n1-c1ccccc1
Reply: 100 to 1000 nM

Task item: Dear colleague, please send me the reported IC50 for C[C@H](NC(=O)c1c(N)nn2cccnc12)c1cc2cccc(C=O)c2c(=O)n1-c1ccccc1 when you can.
Reply: < 100 nM

Task item: # return recorded IC50 for entry Cc1ccn2ncc(C(=O)N[C@@H](C)c3cc4cccc(Cl)c4c(=O)n3-c3ccccc3)c2n1
Reply: 100 to 1000 nM

Task item: Give the value of IC50 reported for the following: C[C@H](NC(=O)c1cncc2cccnc12)c1cc2cccc(C(F)(F)F)c2c(=O)n1-c1ccccc1
Reply: < 100 nM

----------
pIC50: −log10 of the molar value.
Parameter pIC50, tested on PI3K γ (Homo sapiens, UniProt P48736), listed per item.
Sequence (P48736 whole entry): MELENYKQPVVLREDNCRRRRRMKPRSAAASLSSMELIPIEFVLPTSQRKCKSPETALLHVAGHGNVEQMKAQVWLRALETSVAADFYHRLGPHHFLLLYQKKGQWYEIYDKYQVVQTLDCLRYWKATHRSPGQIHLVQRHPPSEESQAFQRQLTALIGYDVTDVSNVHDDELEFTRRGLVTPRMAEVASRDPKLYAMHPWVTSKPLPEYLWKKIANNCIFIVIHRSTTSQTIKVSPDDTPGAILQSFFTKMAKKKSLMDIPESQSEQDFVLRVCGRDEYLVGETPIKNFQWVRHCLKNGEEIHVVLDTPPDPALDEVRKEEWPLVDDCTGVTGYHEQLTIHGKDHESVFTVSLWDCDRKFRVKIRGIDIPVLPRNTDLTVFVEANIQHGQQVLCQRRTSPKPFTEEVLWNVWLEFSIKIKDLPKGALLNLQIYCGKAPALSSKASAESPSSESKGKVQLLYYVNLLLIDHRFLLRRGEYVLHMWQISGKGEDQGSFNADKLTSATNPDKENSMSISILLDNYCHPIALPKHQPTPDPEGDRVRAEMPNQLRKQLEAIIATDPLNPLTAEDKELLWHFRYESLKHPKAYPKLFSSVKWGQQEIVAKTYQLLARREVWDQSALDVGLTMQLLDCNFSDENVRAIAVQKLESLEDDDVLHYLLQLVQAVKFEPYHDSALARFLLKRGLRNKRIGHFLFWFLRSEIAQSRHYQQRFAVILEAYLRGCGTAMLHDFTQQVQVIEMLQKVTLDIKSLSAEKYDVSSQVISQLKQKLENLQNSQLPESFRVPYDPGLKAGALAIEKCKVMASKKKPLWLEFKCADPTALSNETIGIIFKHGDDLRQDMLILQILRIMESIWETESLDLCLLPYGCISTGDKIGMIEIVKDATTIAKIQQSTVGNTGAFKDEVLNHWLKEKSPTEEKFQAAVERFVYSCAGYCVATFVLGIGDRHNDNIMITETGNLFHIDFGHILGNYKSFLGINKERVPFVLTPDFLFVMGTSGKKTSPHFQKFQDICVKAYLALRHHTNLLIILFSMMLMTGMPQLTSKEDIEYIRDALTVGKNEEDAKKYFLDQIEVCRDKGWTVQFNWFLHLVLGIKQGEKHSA

Some compounds with known pIC50 results, for comparison:
{"Compound smiles": "C[C@H](NC(=O)c1c(N)nn2cccnc12)c1cc2cccc(-c3cccnc3)c2c(=O)n1-c1ccccc1", "Reported value": "6.00 to 7.00"}
{"Compound smiles": "C[C@H](NC(=O)c1c(N)nn2cccnc12)c1nn2ccc(-c3cnn(C)c3)c2c(=O)n1-c1ccccc1", "Reported value": "< 5.00"}
{"Compound smiles": "C[C@H](NC(=O)c1c(N)ncc2cccnc12)c1cc2cccc(Cl)c2c(=O)n1-c1ccccc1", "Reported value": "6.00 to 7.00"}

Now take the following compound into account.
Task item: Please indicate pIC50 recorded for C[C@H](NC(=O)c1nc(-c2cccc(S(N)(=O)=O)c2)cnc1N)c1cc2cccc(Cl)c2c(=O)n1-c1ccccc1
Reply: 6.00 to 7.00

----------
UniProtKB P42338 measurements of pIC50, listed per entry.
Sequence (P42338 whole entry): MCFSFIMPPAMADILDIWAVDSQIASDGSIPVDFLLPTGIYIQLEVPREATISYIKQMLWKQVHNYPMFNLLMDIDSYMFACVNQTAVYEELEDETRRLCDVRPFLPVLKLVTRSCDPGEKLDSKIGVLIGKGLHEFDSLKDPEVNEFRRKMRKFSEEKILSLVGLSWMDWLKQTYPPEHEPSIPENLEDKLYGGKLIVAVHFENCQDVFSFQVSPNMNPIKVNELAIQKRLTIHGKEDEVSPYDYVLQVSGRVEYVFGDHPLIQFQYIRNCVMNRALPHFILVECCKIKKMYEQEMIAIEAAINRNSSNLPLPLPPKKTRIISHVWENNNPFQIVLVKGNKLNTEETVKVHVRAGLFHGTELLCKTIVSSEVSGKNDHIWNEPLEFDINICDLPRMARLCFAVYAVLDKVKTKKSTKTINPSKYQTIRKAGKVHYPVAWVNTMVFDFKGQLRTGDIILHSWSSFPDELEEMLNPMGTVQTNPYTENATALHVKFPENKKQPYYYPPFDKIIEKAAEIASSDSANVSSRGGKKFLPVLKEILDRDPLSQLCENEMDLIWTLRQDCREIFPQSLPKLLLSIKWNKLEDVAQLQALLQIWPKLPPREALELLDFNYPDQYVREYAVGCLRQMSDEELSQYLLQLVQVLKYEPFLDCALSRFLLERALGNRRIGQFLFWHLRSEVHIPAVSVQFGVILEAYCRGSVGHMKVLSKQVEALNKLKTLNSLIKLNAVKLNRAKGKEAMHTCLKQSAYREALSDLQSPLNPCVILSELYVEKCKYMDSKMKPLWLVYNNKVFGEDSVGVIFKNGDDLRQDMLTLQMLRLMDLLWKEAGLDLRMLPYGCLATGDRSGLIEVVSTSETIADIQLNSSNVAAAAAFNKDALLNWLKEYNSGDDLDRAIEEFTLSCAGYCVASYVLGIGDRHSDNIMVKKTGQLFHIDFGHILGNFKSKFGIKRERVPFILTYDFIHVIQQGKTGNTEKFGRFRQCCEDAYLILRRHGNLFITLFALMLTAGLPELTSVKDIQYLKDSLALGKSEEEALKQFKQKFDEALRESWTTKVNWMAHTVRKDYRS
Sequence (P27986 whole entry partner): as the sequence (P27986 whole entry partner) above
pIC50: −log10 of the molar value.

{"Compound": "C[C@H](NC(=O)c1nccnc1N)c1nc2cccc(Cl)c2c(=O)n1-c1ccccc1 [Compound 289]", "Reported property": "pIC50", "Reported value": "5.00 to 6.00"}
{"Compound": "CC(C)Oc1ccc(-c2cnc(N)c(C(=O)N[C@@H](C)c3cc4cccc(Cl)c4c(=O)n3-c3ccccc3)n2)cc1F [Compound 87]", "Reported property": "pIC50", "Reported value": "< 5.00"}
{"Compound": "CC(C)NS(=O)(=O)c1cccc(-c2cnc(N)c(C(=O)N[C@@H](C)c3cc4cccc(Cl)c4c(=O)n3-c3ccccc3)n2)c1 [Compound 97]", "Reported property": "pIC50", "Reported value": "6.00 to 7.00"}
{"Compound": "C[C@H](NC(=O)c1nc(-c2cscn2)cnc1N)c1cc2cccc(Cl)c2c(=O)n1-c1ccccc1 [Compound 112]", "Reported property": "pIC50", "Reported value": "5.00 to 6.00"}

Task item: Consider the compound C[C@H](NC(=O)c1nc(-c2cccc(O)c2)cnc1N)c1cc2cccc(Cl)c2c(=O)n1-c1ccccc1 [Compound 104] tested on UniProtKB P42338; state its pIC50.
Reply: 5.00 to 6.00

Task item: Retrieve pIC50 on UniProtKB P42338; query COc1cc(-c2cccc3cc([C@H](C)NC(=O)c4c(N)nn5ccc(C)nc45)n(-c4ccccc4)c(=O)c23)ccn1 [Compound 186]
Reply: < 5.00

Task item: Given C[C@H](NC(=O)c1c(N)nn2cccnc12)c1cc2cccc(-c3cncc(NS(C)(=O)=O)c3)c2c(=O)n1-c1ccccc1 [Compound 120] , report its pIC50 on UniProtKB P42338.
Reply: < 5.00

----------
Reported pIC50 values follow for various compounds
- Target or test system: RAJI p110 δ (Homo sapiens)
- Test protocol: RAJI p110 δ cellular assay (phospho-AKT);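 further: potency based on lowered phosphorylated AKT in RAJI cells, as a readout of PI3K-δ dependent B-cell receptor signaling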
pIC50: −log10 of the molar value.

Reference set, count: 2
{"Compound smiles": "COc1cc(-c2cccc3cc([C@H](C)NC(=O)c4c(N)nn5cccnc45)n(-c4cccc(F)c4)c(=O)c23)ccn1", "pIC50": "6.00 to 7.00"}
{"Compound smiles": "C[C@H](NC(=O)c1c(N)nn2cccnc12)c1cc2cccc(Cl)c2c(=O)n1C", "pIC50": "> 7.00"}

Task item: State, in one line, measured pIC50 of C[C@H](NC(=O)c1c(N)nn2cccnc12)c1cc2cccc(C#CCNC(=O)[C@@H]3CCC(=O)O3)c2c(=O)n1-c1ccccc1
Reply: > 7.00

Task item: Quick one: give measured pIC50 for COc1cc(-c2cccc3nc([C@H](C)NC(=O)c4c(N)nn5cccnc45)n(-c4ccccc4)c(=O)c23)ccn1
Reply: > 7.00

Task item: Write down pIC50 measured for item Cc1ccn2ncc(C(=O)N[C@@H](C)c3cc4cccc(Cl)c4c(=O)n3-c3ccccc3)c2n1
Reply: 6.00 to 7.00

Task item: Return reported pIC50. Input compound: C[C@H](NC(=O)c1c(N)nn2cccnc12)c1cc2scc(Cl)c2c(=O)n1-c1ccccc1
Reply: > 7.00

Task item: Report pIC50 for Cc1cccc2cc([C@H](C)NC(=O)c3c(N)nn4cccnc34)n(-c3ccccc3)c(=O)c12
Reply: > 7.00
